biological target: UniProt:O43781; test: In vitro kinase assay, recombinant human DYRK3 (Life Technologies)
Sequence (O43781 whole entry): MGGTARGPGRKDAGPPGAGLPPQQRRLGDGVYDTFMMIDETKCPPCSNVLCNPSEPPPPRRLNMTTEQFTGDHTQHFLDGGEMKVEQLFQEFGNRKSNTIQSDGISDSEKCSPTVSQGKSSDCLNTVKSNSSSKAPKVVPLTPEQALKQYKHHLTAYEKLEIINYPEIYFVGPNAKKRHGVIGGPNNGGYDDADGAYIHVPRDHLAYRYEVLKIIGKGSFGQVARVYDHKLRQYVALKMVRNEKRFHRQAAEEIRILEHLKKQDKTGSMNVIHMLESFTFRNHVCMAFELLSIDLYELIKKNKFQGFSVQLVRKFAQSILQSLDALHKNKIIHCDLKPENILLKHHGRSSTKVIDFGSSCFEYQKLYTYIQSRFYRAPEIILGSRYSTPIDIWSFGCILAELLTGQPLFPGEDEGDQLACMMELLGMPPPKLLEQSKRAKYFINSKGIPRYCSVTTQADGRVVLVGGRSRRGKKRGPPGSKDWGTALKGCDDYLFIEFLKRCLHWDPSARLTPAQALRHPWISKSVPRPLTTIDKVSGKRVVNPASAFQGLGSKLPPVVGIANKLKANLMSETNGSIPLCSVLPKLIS
attribute-measured: pIC50
Numbers only, as −log10 of the molar value.

>  <structure-smiles>
O=C(O)c1ccc2c(c1)nc(Nc1cccc(Cl)c1)c1ccncc12

>  <pIC50>
7.74

$$$$

Note to self: pIC50 recorded for COc1ccc2c(c1)[nH]c1c(C)nccc12 was 6.25

* * *

molecular target: DYRK4 (Homo sapiens, UniProt Q9NR20); assay: In vitro kinase assay, recombinant human DYRK4 (Life Technologies)
Sequence (Q9NR20 whole entry): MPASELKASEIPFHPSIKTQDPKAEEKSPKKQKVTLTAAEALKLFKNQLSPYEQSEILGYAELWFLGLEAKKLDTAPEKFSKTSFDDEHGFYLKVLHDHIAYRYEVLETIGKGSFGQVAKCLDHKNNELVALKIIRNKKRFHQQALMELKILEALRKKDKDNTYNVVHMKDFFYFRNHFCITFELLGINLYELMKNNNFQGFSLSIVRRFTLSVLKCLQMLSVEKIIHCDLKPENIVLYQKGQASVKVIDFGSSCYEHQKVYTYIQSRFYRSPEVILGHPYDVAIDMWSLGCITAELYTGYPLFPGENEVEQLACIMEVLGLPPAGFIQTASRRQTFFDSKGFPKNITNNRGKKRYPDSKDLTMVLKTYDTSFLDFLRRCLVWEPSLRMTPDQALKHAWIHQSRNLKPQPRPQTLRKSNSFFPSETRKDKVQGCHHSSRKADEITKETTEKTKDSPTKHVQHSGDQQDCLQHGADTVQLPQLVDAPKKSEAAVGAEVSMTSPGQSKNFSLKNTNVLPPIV
attribute-measured: IC50 (µM)
Give bare numbers, in µM.

>  <structure-smiles>
COc1ccc2c(c1)[nH]c1c(C)nccc12

>  <system>
DYRK4 (Homo sapiens, UniProt Q9NR20)

>  <IC50 [µM]>
5.88

$$$$

Shifting focus to the molecule that follows.
Note to self: IC50 recorded for O=C(O)c1ccc2c(c1)nc(Nc1cccc(Cl)c1)c1ccncc12 was 1.5
